Ki values for Melanin-concentrating hormone receptor 1 (Rattus norvegicus), compiled from several publications.

molecule | Ki
O=c1c2cc(-c3ccc(Cl)cn3)cn2ncn1-c1ccc(N2CC[C@@H](O)C2)nc1 | 54 nM
O=c1c2cc(-c3ccc(Cl)cc3)cn2ncn1-c1ccc(N2CCC(O)CC2)nc1 | 18 nM
O=c1c2cc(-c3ccc(Cl)cc3)cn2ncn1-c1ccc(N2CC[C@@H](O)C2)nc1 | 5.5 nM
CN1CC(N2CCc3cc(-n4ccc(OCc5ccccc5)cc4=O)ccc32)C1 | 2.5 nM
Cc1ccc(NC(=O)C(C)C)cc1C1CCN(CCCNC(=O)C2(c3ccc(F)cc3)CCCCC2)CC1 | 1.9 nM
CC(C)C(=O)Nc1c(F)cc(F)c(C2CCN(CCCNC(=O)C(c3ccc(F)cc3)c3ccc(F)cc3)CC2)c1F | 2.9 nM
Clc1ccc(-c2ccc(CNC3CCN(CC(c4ccccc4)c4ccccc4)C3)o2)cc1 (stereo not given) | 1700 nM
COc1cc(-n2cnc3cc(-c4ccc(Cl)cc4)sc3c2=O)ccc1OCC1(O)CC(F)(F)C1 | 11.5 nM
COc1cc(-n2cnn3cc(-c4ccc(Cl)cc4)cc3c2=O)ccc1OCC(C)O (stereo not given) | 1.4 nM
CC(C)C(=O)Nc1cccc(C2CCN(CCCNC(=O)C(C)(c3ccccc3)c3ccccc3)CC2)c1 | 7.5 nM
CC(C)C(=O)Nc1cc(C2CCN(CCCNC(=O)C(c3ccc(F)cc3)c3ccc(F)cc3)CC2)c(F)cc1F | 1.8 nM
CC(C)C(=O)Nc1cccc(C2CCN(CCNC(=O)C(c3ccccc3)c3ccccc3)CC2)c1 | 1.9 nM
COc1cc(-n2cnn3cc(-c4ccc(Cl)cc4)nc3c2=O)ccc1OCC(O)C1CC1 (stereo not given) | 18 nM
Cc1ccc(NC(=O)C(C)C)cc1C1CCN(CCCNC(=O)C2(c3ccc(F)cc3)CCCC2)CC1 | 3.8 nM
COc1ccc(-n2cnn3nc(-c4ccc(Cl)cc4)cc3c2=O)cc1OC | 106 nM
Cn1cc(C2CN(CCF)C2)c2ccc(-n3ccc(-c4ccc(F)cc4)cc3=O)cc21 | 9 nM
Cc1ccc(NC(=O)C(C)C)cc1C1CCN(CCCNC(=O)C(c2ccccc2)c2ccccc2)CC1 | 3 nM
COc1cc(-n2cnn3cc(-c4ccc(Cl)cc4)cc3c2=O)ccc1N1C[C@@H](O)[C@@H](O)C1 | 2.3 nM
COc1cc(-n2cnn3cc(-c4ccc(Cl)cc4)cc3c2=O)ccc1N1CC[C@@H](O)C1 | 4.7 nM
CNC1CCN(c2ccc(-n3cnn4cc(-c5ccc(Cl)cc5)cc4c3=O)cn2)C1 (stereo not given) | 0.3 nM
O=c1cc(-c2ccc(Cl)cc2)ccn1-c1ccc2c(c1)CCN2C1CN(CCF)C1 | 6.5 nM
CC(CCN1CCC(NCc2ccc(-c3ccc(Cl)cc3)o2)C1)CC(C)(C)C (stereo not given) | 5000 nM
CN1CC(N2CCc3cc(-n4ccc(-c5ccc(Cl)cc5)cc4=O)ccc32)C1 | 4.9 nM
O=C(Cc1ccc2c(c1)OCO2)NC1CCN(Cc2ccc(Cl)c(Cl)c2)C1 (stereo not given) | 630 nM
O=C(Cc1ccccc1)NC1CCN(Cc2ccccc2)C1 (stereo not given) | > 10000 nM
COc1cc(-n2cnn3cc(-c4ccc(Cl)cn4)cc3c2=O)ccc1OCC(O)C1CC1 (stereo not given) | 12 nM
O=C(Cc1ccc(Oc2ccccc2)cc1)NC1CCN(Cc2ccc(Cl)c(Cl)c2)C1 (stereo not given) | 510 nM
O=C(Cc1csc2ccccc12)NC[C@@H]1CCCN1Cc1ccc(Cl)c(Cl)c1 | 6000 nM
COCCN1CC(c2c[nH]c3cc(-n4ccc(OCc5ccccc5)cc4=O)ccc23)C1 | 5.2 nM
COc1cc(-n2cnn3nc(-c4ccc(Cl)cc4)cc3c2=O)ccc1OCC(O)C1CC1 (stereo not given) | 13 nM
